Just for reference, patent US20210255193A1 is where these values come from.

Give isoTOP-ABPP reactivity ratio at lysine P17858_K715 for every item shown.
Measured target: PFKL 6-phosphofructokinase, liver type (Homo sapiens)
Construct: isoTOP-ABPP experiments performed in cell lysates (in vitro); endogenous in cells; host or cells: soluble proteome of human cancer cell lines (MDA-MB-231; Ramos and Jurkat also prepared)
Sequence (P17858 1-780): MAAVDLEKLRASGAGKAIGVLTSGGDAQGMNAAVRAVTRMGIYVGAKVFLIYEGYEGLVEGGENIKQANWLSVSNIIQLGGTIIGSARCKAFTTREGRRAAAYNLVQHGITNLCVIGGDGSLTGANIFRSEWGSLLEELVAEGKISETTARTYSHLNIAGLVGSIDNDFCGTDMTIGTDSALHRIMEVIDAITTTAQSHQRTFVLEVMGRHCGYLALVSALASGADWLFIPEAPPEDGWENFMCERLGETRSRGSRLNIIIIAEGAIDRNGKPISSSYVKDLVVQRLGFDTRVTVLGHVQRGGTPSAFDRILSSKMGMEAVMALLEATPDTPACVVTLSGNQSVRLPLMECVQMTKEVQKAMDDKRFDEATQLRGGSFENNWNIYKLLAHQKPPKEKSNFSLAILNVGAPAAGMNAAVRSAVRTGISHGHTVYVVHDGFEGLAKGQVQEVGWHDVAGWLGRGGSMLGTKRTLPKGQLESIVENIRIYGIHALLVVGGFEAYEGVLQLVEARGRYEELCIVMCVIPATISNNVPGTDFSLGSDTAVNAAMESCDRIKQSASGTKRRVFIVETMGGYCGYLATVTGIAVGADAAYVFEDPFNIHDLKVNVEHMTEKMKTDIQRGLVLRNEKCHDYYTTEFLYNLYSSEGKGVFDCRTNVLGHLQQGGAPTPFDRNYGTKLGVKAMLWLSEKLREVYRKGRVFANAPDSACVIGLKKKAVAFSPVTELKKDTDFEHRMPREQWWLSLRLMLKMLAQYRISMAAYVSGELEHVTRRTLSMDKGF
Measurement notes: competitive isoTOP-ABPP
Format: binding
Measurement conditions: 50 uM, 231 sol, in vitro
Method: In vitro covalent fragment treatment for isoTOP-ABPP. All compounds were made up as solutions in DMSO (100×) and were used at a final concentration of 50 μM for activated esters and 100 μM for guanidinylating agents. […] R value calculation and processing. The ratios of light and heavy MS1 peaks for each unique peptide were quantified with a CIMAGE software using default parameters (3 MS1 acquisitions per peak and signal to noise threshold set to 2.5). […]
Reply with just the number.

Enquiry: Look up and report isoTOP-ABPP reactivity ratio at lysine P17858_K715, with PFKL 6-phosphofructokinase, liver type (Homo sapiens) as system, for Cn1cc(CC(=O)Oc2ccc([N+](=O)[O-])cc2[N+](=O)[O-])c2ccccc21 [fragment 32]
Return: 7.7

Enquiry: Provide measured isoTOP-ABPP reactivity ratio at lysine P17858_K715 on PFKL 6-phosphofructokinase, liver type (Homo sapiens) for O=C(Oc1c(F)c(F)c(F)c(F)c1F)c1ccc2ccccc2n1 [fragment 25] please.
Return: 1.3

Enquiry: Give PFKL 6-phosphofructokinase, liver type (Homo sapiens) isoTOP-ABPP reactivity ratio at lysine P17858_K715 for the following compound: O=C(CCc1cn(-c2ccccc2)nc1-c1ccccc1)Oc1ccc([N+](=O)[O-])cc1[N+](=O)[O-] [fragment 29]
Return: 6.8

Enquiry: Fill in isoTOP-ABPP reactivity ratio at lysine P17858_K715 for O=C(CN1C(=O)c2ccccc2C1=O)Oc1c(F)c(F)c(F)c(F)c1F [fragment 27] tested with PFKL 6-phosphofructokinase, liver type (Homo sapiens).
Return: 1.3

Enquiry: Please look at COc1cc(CCC(=O)Oc2ccc([N+](=O)[O-])cc2[N+](=O)[O-])cc(OC)c1OC [fragment 33] and tell me its recorded isoTOP-ABPP reactivity ratio at lysine P17858_K715 on PFKL 6-phosphofructokinase, liver type (Homo sapiens).
Return: 1.1

Enquiry: Give isoTOP-ABPP reactivity ratio at lysine P17858_K715 only, for O=C(CCc1coc2cc(F)ccc2c1=O)Oc1c(F)c(F)c(F)c(F)c1F [fragment 26] , using PFKL 6-phosphofructokinase, liver type (Homo sapiens) data.
Return: 1.5

Enquiry: Report the value of isoTOP-ABPP reactivity ratio at lysine P17858_K715 obtained on PFKL 6-phosphofructokinase, liver type (Homo sapiens) for O=C(Oc1c(F)c(F)c(F)c(F)c1F)C1CCN(C(=O)OCc2ccccc2)CC1 [fragment 24] .
Return: 0.9

Enquiry: System PFKL 6-phosphofructokinase, liver type (Homo sapiens). Read-out isoTOP-ABPP reactivity ratio at lysine P17858_K715. Item CCn1cc(C(=O)Oc2c(F)c(F)c(F)c(F)c2F)c(=O)c2ccc(C)nc21 [fragment 28] . Report value.
Return: 1.5

Enquiry: For PFKL 6-phosphofructokinase, liver type (Homo sapiens), give the measured isoTOP-ABPP reactivity ratio at lysine P17858_K715 of the entry O=C(Oc1ccc([N+](=O)[O-])cc1[N+](=O)[O-])c1cc(C(F)(F)F)cc(C(F)(F)F)c1 [fragment 31]
Return: 2.3
